# condition notes: Crystal
measured quantity: Normal melting temperature (°C)

For orientation, consider the following solved cases.
>  <sample smiles>
CCCCCCCCCCCCO

>  <test result>
24.1

$$$$
>  <sample smiles>
O=C(O)CC1CCCCC1

>  <test result>
29.8

$$$$

I. CCCCCCCCCCO
II. O=C(O)C1CCCCC1
Which of these two has the smaller recorded Normal melting temperature: I or II ? Lab log: write the label of the selected item as the result. I
(I: 6.2 °C, II: 29.8 °C)
